Tested on: FGFR2 (human), P21802 [N549H]
Sequence (P21802 whole entry N549H, looked up): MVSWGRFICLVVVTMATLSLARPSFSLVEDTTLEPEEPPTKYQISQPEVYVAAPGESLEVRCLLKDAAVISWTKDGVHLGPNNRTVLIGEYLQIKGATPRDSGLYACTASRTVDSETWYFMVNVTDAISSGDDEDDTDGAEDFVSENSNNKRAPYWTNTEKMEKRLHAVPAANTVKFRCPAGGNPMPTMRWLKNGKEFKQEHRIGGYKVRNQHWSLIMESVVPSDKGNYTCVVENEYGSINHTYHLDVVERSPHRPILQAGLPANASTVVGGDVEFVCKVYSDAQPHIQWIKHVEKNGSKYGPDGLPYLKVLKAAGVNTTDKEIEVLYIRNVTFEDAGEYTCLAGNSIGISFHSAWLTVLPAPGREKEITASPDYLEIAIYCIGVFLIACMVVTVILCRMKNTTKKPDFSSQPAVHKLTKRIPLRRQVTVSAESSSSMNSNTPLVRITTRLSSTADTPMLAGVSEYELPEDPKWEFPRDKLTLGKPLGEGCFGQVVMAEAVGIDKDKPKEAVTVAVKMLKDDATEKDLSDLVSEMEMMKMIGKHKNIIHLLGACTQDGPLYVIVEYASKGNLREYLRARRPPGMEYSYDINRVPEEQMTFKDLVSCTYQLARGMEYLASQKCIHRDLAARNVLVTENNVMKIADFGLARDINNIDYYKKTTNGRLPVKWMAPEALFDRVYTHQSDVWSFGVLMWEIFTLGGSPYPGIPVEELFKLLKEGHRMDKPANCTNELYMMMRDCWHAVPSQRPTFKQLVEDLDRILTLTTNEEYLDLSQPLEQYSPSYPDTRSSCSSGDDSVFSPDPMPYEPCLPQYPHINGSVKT
Test: Caliper, Mobility shift assay off-chip
Settings: compound 1.0 µM
reported-endpoint: inhibition (%)
Just the number in %, nothing appended.

A selection of reference data follows.
CN(c1ccc2ccc3ncc(-c4cnn(C)c4)cc3c(=O)c2c1)S(=O)(=O)NCc1ccccn1: 57.6
Cn1cc(-c2cnc3ccc4ccc(CS(=O)(=O)CCc5ccccn5)cc4c(=O)c3c2)cn1: 15.5
Cn1cc(-c2cnc3ccc4ccc(CS(N)(=O)=O)cc4c(=O)c3c2)cn1: 40.5

Note: attention shifts to another entry.
Consider the compound O=C(CCc1ccc2ccc3ncc(C4CCNCC4)cc3c(=O)c2c1)NCc1ccccn1 and give its measured inhibition. 0.9

Data credit: the kinase profiling compilation of Christmann-Franck et al. (2016)
